assay-target: human/mouse CD137 chimera 1551 (human/mouse chimera) (UniProt Q07011)
test-method-notes: flow cytometry, transfected 293-F cells
For each record, write down the corresponding relative MFI normalized to full-length human CD137.
Answers are plain numbers.

Example entries and their recorded answers appear below.
[[record]]
binder = "1626/1627 (antibody, V domains shown) VH: EVQLLESGGGLVQPGGSLRLSCAASGFTFGGYSMYWVRQAPGKGLEWVSSIGGYYYSTYYADSVKGRFTISRDNSKNTLYLQMNSLRAEDTAVYYCARSYYGSIDYWGQGTLVTVSS VL: DIQMTQSPSSLSASVGDRVTITCRASQSISSYLNWYQQKPGKAPKLLIYAASSLQSGVPSRFSGSGSGTDFTLTISSLQPEDFATYYCQQGTGYGPLTFGQGTKLEIK"
result_value = 0.11

[[record]]
binder = "1202/1203 (antibody, V domains shown) VH: EVQLLESGGGLVQPGGSLRLSCAASGFTFYGSSMSWVRQAPGKGLEWVSSIYYGSSGTYYADSVKGRFTISRDNSKNTLYLQMNSLRAEDTAVYYCARSYYGYFDYWGQGTLVTVSS VL: DIQMTQSPSSLSASVGDRVTITCRASQSISSYLNWYQQKPGKAPKLLIYAASSLQSGVPSRFSGSGSGTDFTLTISSLQPEDFATYYCQQYYTVVPFTFGQGTKLEIK"
result_value = 0.05


Proceed to the following item.
Challenge: Which relative MFI normalized to full-length human CD137 is reported for this binder? 1618/1619 (antibody, V domains shown) VH: EVQLLESGGGLVQPGGSLRLSCAASGFTFSYGSMYWVRQAPGKGLEWVSSISSGSGSTYYADSVKGRFTISRDNSKNTLYLQMNSLRAEDTAVYYCARSSYYGSYYSIDYWGQGTLVTVSS VL: DIQMTQSPSSLSASVGDRVTITCRASQSISSYLNWYQQKPGKAPKLLIYAASSLQSGVPSRFSGSGSGTDFTLTISSLQPEDFATYYCQQYYDNLPTFGQGTKLEIK
Response given: 0.67
